So I've got a bunch of molecules here, and I need their Papp at 4 h, 100 µM values.
Test: PAMPA-BBB (parallel artificial membrane permeability assay, porcine polar brain lipid extract)
Assay type: in vitro ADME
Settings: pig, PAMPA, pH 7.4; read-out: logPe PAMPA-BBB (n = 9) (converted)
Procedure: For the PAMPA-BBB test, 5 μL of porcine polar brain lipid extract (PBLE) solution (16.0 mg PBLE + 8.0 mg cholesterol dissolved in 600.0 μL n-dodecane) was applied for each well of the 96-well polycarbonate-based filter donor plates (top plate) (Multiscreen™-IP, MAIPN4510, pore size 0.45 μm; Merck). For the PAMPA-GI assay, the wells of the top plate were coated with 5 μL of the mixture of 16.0 mg phosphatidylcholine + 8.0 mg cholesterol dissolved in 600.0 μL n-dodecane. […]
Your answer is read as ×10⁻⁶ cm/s, so omit the unit and give the number.

Recorded Papp at 4 h, 100 µM (molecule CCOC(=O)c1cc(O)c(O)c(O)c1 [Compound 58, ethyl gallate] ): 1.7

Recorded Papp at 4 h, 100 µM (molecule `O=c1oc2c(O)c(O)cc3c(=O)oc4c(O)c(O)cc1c4c23` ): 0.224

Recorded Papp at 4 h, 100 µM (molecule `O=C1C=CC(=O)c2c(O)cccc21` ): 77.6

###

system: Vero E6 non-tumorous kidney cells; assay: selectivity study: cytostatic activity on non-tumorous Vero E6 cells, Alamar Blue assay; assay type: cell-based, African green monkey (C. sabaeus); details: Chlorocebus sabaeus, Vero C1008; in vitro cytostatic activity, Alamar Blue assay, Vero E6 non-tumorous kidney cells; read-out: IC50 (µM) VERO E6 Non Tumorous
recorded endpoint: IC50 (µM)
Your answer is read as µM, so omit the unit and give the number.

Recorded IC50 (compound CCOC(=O)c1cc(O)c(O)c(O)c1 [Compound 58, ethyl gallate] ): 82.1

Recorded IC50 (compound `O=C1C=CC(=O)c2c(O)cccc21` ): 3.7

Recorded IC50 (compound O=C(OCC1OC(OC2CCC(=O)c3ccc(O)c(O)c32)C(O)C(O)C1O)c1cc(O)c(O)c(O)c1 (stereo not shown) ): 61.1

Recorded IC50 (compound CC1OC(Oc2c(-c3cc(O)c(O)c(O)c3)oc3cc(O)cc(O)c3c2=O)C(O)C(O)C1O (stereo not shown) [myricetin-3-O-rhamnoside (86)] ): 3.7

Recorded IC50 (compound `O=C(O)c1cc(O)c(O)c(O)c1` ): 49.9

###

System: HT-29 colorectal carcinoma cells
Assay: in vitro cytostatic (antiproliferative) activity, Alamar Blue (resazurin) assay, HT-29
Type: cell-based
Conditions: Homo sapiens; HT-29 colon carcinoma; treatment overnight, then 72 h culture; Alamar Blue; read-out: IC50 on HT-29 cell culture
Procedure: For the evaluation of the in vitro antiproliferative activity of the compounds, the cell viability was determined by resazurin (Alamar Blue) assay on MDA-MB 231 breast carcinoma, A2058 melanoma, and HT-29 colon carcinoma cell culture. The control wells were treated only with serum-free medium. […] All cell cultures were maintained at 37 °C in a humidified atmosphere with 5% CO2. […] After that, cell viability was determined using the Alamar Blue assay. […]
recorded endpoint: pIC50
In textbook form, pIC50 equals minus log to base ten of the concentration in mol/L.

Recorded pIC50 (compound `O=c1oc2c(O)c(O)cc3c(=O)oc4c(O)c(O)cc1c4c23` ): 4.92
